- System: SEM cells
- assay name: cell viability relative to DMSO control; higher = less cytotoxic
- condition summary: HPLM + 10% dialyzed FBS; 48 h; 0.00702 µM
Reported cell viability values follow for various compounds

line notation | unit of measurement | cell viability
CC(=O)OCC(=O)[C@@]1(O)CC[C@H]2[C@@H]3CCC/4=C/C(=O)/C=C\[C@]4(C)[C@H]3[C@@H](O)C[C@]12C | % | 104
Cc1cccc(-c2[nH]c(C(C)(C)C)nc2-c2ccc3nccnc3c2)n1 | % | 120
Nc1cc(N2CCCCC2)nc(N)[n+]1[O-] | % | 115
CCC[C@H](Nc1nc(-c2ccc(NC(=O)NCC)c(OC)c2)ncc1C)c1cccnc1 | % | 94
O=C(O)c1cccc(-c2noc(-c3ccccc3F)n2)c1 | % | 92.3
CC1(C)CCC(C)(C)c2cc(NC(=O)c3ccc(C(=O)O)cc3)ccc21 | % | 98.5
Cn1cnc(N)c2ncnc1-2 | % | 111
Cc1ccc(C(=O)Nc2ccc([S+](=O)([O-])O)c3cc([S+](=O)([O-])O)cc([S+](=O)([O-])O)c23)cc1NC(=O)c1cccc(NC(=O)Nc2cccc(C(=O)Nc3cc(C(=O)Nc4ccc([S+](=O)([O-])O)c5cc([S+](=O)([O-])O)cc([S+](=O)([O-])O)c45)ccc3C)c2)c1 | % | 96.2

----------
- System: NOMO1
- assay name: cell viability relative to DMSO control; higher = less cytotoxic
- condition summary: RPMI 5 mM glucose + 10% dialyzed FBS; 48 h; 1.71 µM

line notation | unit of measurement | cell viability
Cn1cnc(N)c2ncnc1-2 | % | 118
COCC(=O)NC/C=C/c1ccc2ncnc(Nc3ccc(Oc4ccc(C)nc4)c(C)c3)c2c1 | % | 71.2
CN1CCC(CNc2ccc3ncc(-c4cccc(OC(F)(F)F)c4)n3n2)CC1 | % | 94.9
CCOc1ccccc1N/N=C1/C(=O)N(c2nc(-c3ccccc3)cs2)N=C1C | % | 90.5

----------
- System: SEM cells
- assay name: cell viability relative to DMSO control; higher = less cytotoxic
- condition summary: HPLM + 10% dialyzed FBS; 48 h; 0.19 µM
This listing pairs molecules with measured cell viability.

molecule | experimental target | cell viability [%]
COc1cc(N2CCC(N3CCN(C)CC3)CC2)ccc1Nc1ncc(Cl)c(Nc2ccccc2[S+](=O)([O-])C(C)C)n1 | SEM cells | 84.1
N[C@@H]1C[C@H]1c1ccccc1 | SEM cells | 137
CC(O)(C[S+](=O)([O-])c1ccc(F)cc1)C(=O)Nc1ccc(C#N)c(C(F)(F)F)c1 (configuration not stated) | SEM cells | 96.2
C#CCC(Cc1cnc2nc(N)nc(N)c2n1)c1ccc(C(=O)N[C@@H](CCC(=O)O)C(=O)O)cc1 (some centres not stated) | SEM cells | 48
Nc1ncnc2nc(-c3ccc(N4CCOCC4)nc3)cc(-c3cccc(Br)c3)c12 | SEM cells | 122
NC[C@H](O)c1ccc(O)c(O)c1 | SEM cells | 98.2
CCCCCN(C)CCC(O)(P(=O)([O-])O)P(=O)(O)O | SEM cells | 91.8

----------
- Tested on: NOMO1
- assay name: cell viability relative to DMSO control; higher = less cytotoxic
- condition summary: RPMI 5 mM glucose + 10% dialyzed FBS; 48 h; 0.0632 µM
measurement label: cell viability (%)

compound | unit of measurement | result number
COc1c(N2C[C@@H]3CCCN[C@@H]3C2)c(F)cc2c(=O)c(C(=O)O)cn(C3CC3)c12.Cl.O | % | 99.1
COc1cccc(OC)c1-c1cc(C(=O)NC2(C(=O)O)C3CC4CC(C3)CC2C4)nn1-c1ccnc2cc(Cl)ccc12 (stereo unspecified) | % | 113
Cc1noc(N[S+](=O)([O-])c2ccc(N)cc2)c1C | % | 89
c1coc(CNc2ncnc3nc[nH]c23)c1 | % | 128
Clc1ccc(C(c2ccccc2Cl)C(Cl)Cl)cc1 (stereo unspecified) | % | 111
Cc1nc2ccc(CN(C)c3ccc(C(=O)N[C@@H](CCC(=O)O)C(=O)O)s3)cc2c(=O)[nH]1 | % | 108
